Tested on: P. aeruginosa 1226072
Type: cell-based, Pseudomonas aeruginosa
Settings: 1226072, 20 h
Where a SMILES comes first, the peptide text is derived from it. [ ]: non-standard residue; d: D form. The star is where a group is joined. d(aIle) = CC[C@H](C)[C@@H](N)C(=O)O; dDab = NCC[C@@H](N)C(=O)O; Octanoyl = CCCCCCCC(=O)*; Dab = NCC[C@H](N)C(=O)O
Test readout: MIC (mg/L)
A number alone suffices; assume mg/L.

Notebook: CCCCCCCC(=O)N[C@@H](C(=O)N[C@H](CCN)C(=O)NCC(=O)N[C@H](CO)C(=O)N[C@H](Cc1c[nH]c2ccccc12)C(=O)N[C@@H](CO)C(=O)N[C@@H](CCN)C(=O)N[C@H](CCN)C(=O)N[C@@H](CO)C(=O)N[C@@H](CCC(=O)O)C(=O)N[C@H](C(=O)N[C@@H](C(=O)N[C@@H](C)C(=O)O)[C@@H](C)CC)C(C)C)C(C)C [Oct-Ser9] (Octanoyl-[dV][dDab]G[dS][dW]S[Dab][dDab]SEV[d(aIle)]A-OH) , MIC read as 32

Record CCCCCCCC(=O)N[C@@H](C(=O)N[C@H](CCN)C(=O)NCC(=O)N[C@H](CO)C(=O)N[C@H](Cc1c[nH]c2ccccc12)C(=O)N[C@@H](CO)C(=O)N[C@@H](CCN)C(=O)N[C@H](CCN)C(=O)N[C@@H](Cc1c[nH]c2ccccc12)C(=O)N[C@@H](CCC(=O)O)C(=O)N[C@H](C(=O)N[C@@H](C(=O)N[C@@H](C)C(=O)O)[C@@H](C)CC)C(C)C)C(C)C [Oct-TriA5] (Octanoyl-[dV][dDab]G[dS][dW]S[Dab][dDab]WEV[d(aIle)]A-OH) . Reported MIC: 8
